Conditions: [M+Na]+; instrument: DT; stepped-field
Measurement Kind: collision cross section (N2) (Å²)

Examples from the recorded data:
Compound	Recorded Result
Nc1ccccc1S(=O)(=O)O [Aniline-2-sulfonic Acid]	153.23
COc1ccc2cc([C@H](C)C(=O)O)ccc2c1 [Naproxen]	163.87
CSCC[C@H](NC=O)C(=O)O [N-Formyl-L-methionine]	149.53
CCCCC[C@@H](/C=C/[C@@H]1[C@@H](C/C=C\CCCC(=O)O)[C@@H]2C[C@H]1OO2)OO [Prostaglandin G2]	199.3

[I] Cc1cc2nc3c(=O)[nH]c(=O)nc-3n(C[C@H](O)[C@H](O)[C@H](O)COP(=O)(O)O)c2cc1C [Riboflavin 5'-Monophosphate]
[II] OC1OC[C@H](O)[C@H](O)[C@H]1O (stereo partly drawn) [L-Arabinose]
// pick min by collision cross section (N2): I , II Answer with the label corresponding to your selection.
II
(II: 141.86 Å², I: 210.66 Å²)

[P] CC(=O)SCCNC(=O)CCNC(=O)[C@H](O)C(C)(C)COP(=O)(O)OP(=O)(O)OC[C@H]1O[C@@H](n2cnc3c(N)ncnc32)[C@H](O)[C@@H]1OP(=O)(O)O [Acetyl coenzyme A]
[Q] COc1cc(O)c2c(=O)c(-c3ccc(O)cc3)coc2c1 [Prunetin]
// pick min by collision cross section (N2): P , Q Answer with the label corresponding to your selection.
Q

---

Settings: [M-H]-; instrument: DT; single field, calibrated with Agilent tune mix (Agilent)
Measurement Kind: collision cross section (N2) (Å²)

Molecule	Unit	collision cross section (N2)
CNc1ncnc2c1ncn2[C@@H]1O[C@H](CO)[C@@H](O)[C@H]1O	Å²	159.67
CCCCCCCCCC(=O)O	Å²	146.87

[1] COc1ccc2[nH]cc(C[C@H](N)C(=O)O)c2c1
[2] NC(=O)c1ccc[n+]([C@@H]2O[C@H](COP(=O)(O)OP(=O)(O)OC[C@H]3O[C@@H](n4cnc5c(N)ncnc54)[C@H](OP(=O)(O)O)[C@@H]3O)[C@@H](O)[C@H]2O)c1 [Nicotinamide adenine dinucleotide phosphate]
Lab notebook, comparison: 1 versus 2 , higher collision cross section (N2) goes to which? Answer with the label corresponding to your selection.
2
(2: 228.27 Å², 1: 154.36 Å²)

[A] O=P(O)(O)OC1O[C@H](CO)[C@@H](O)[C@H](O)[C@H]1O (stereo partly drawn) [a-D-Galactose 1-phosphate]
[B] OC[C@H]1O[C@H](OC[C@H]2O[C@H](OC[C@H]3O[C@H](O[C@]4(CO)O[C@H](CO)[C@@H](O)[C@@H]4O)[C@H](O)[C@@H](O)[C@@H]3O)[C@H](O)[C@@H](O)[C@H]2O)[C@H](O)[C@@H](O)[C@H]1O
Lab notebook, comparison: A versus B , higher collision cross section (N2) goes to which? Answer with the label corresponding to your selection.
B
(B: 221.12 Å², A: 145.32 Å²)

---

Conditions: [M+Na]+; instrument: TW; calibrated with phosphatidylcholines (ESI+) and phosphatidylethanolamines (ESI-)
Measurement Kind: collision cross section (N2) (Å²)

Compound	collision cross section (N2) [Å²]
CC/C=C\C/C=C\C/C=C\C/C=C\C/C=C\C/C=C\CCC(=O)O[C@H](CO/C=C\CCCCCCCCCCCCCCCC)COP(=O)(O)OCCN	286.8
CC/C=C\C/C=C\C/C=C\C/C=C\CCCCC(=O)OC[C@H](COP(=O)(O)O[C@H]1C(O)C(O)C(O)[C@@H](O)C1O)OC(=O)CCCCC/C=C\C/C=C\C/C=C\C/C=C\CCCCC (stereo not given in full)	296.8
CC/C=C\C/C=C\C/C=C\C/C=C\CCCCC(=O)OC[C@H](COP(=O)(O)OC[C@@H](O)CO)OC(=O)CCCCCCCCCCCCCCCCC	281
CCCCCCCC/C=C\CCCCCC/C=C\OC[C@@H](O)COP(=O)([O-])OCC[NH3+]	216.5
CCCCCCCCCCCCCCCCCC(=O)O[C@H](CO)COP(=O)(O)OCCN	224.8
